Sourced from ChEMBL document CHEMBL1772954

Below, each entry is listed alongside its reported log10 of MFC.
System: Candida albicans
assayMethodText: Antifungal activity against Candida albicans ATCC 10213
Assay type: functional
Recorded MFC (log10, µg/mL)

For the compound "O=C1C(Cl)=C(Cl)C(=O)N1CCc1ccccc1" , what log10 of MFC is on record?
1.19

For the compound "O=C1C(Cl)=C(Cl)C(=O)N1Cc1ccccc1" , what log10 of MFC is on record?
1.49

For the compound "CCCCN1C(=O)C=CC1=O" , what log10 of MFC is on record?
1.19

* * *

Test system: Aspergillus niger
assayMethodText: Antifungal activity against Aspergillus niger ATCC 9029
Type: functional
Below, each entry is listed alongside its reported log10 of MFC.
Recorded MFC (log10, µg/mL)

See these solved cases before continuing.
- smi: "COc1ccc(N2C(=O)C=CC2=O)cc1"
  measureName: "log10 of MFC"
  observedMeasurement: 1.80
- smi: "Cc1ccccc1N1C(=O)C=CC1=O"
  measureName: "log10 of MFC"
  observedMeasurement: 1.80
- smi: "O=C1C=CC(=O)N1CCCCc1ccccc1"
  measureName: "log10 of MFC"
  observedMeasurement: 0.89
- smi: "O=C1C=CC(=O)N1Cc1ccccc1"
  measureName: "log10 of MFC"
  observedMeasurement: 1.80
- smi: "O=C1C=CC(=O)N1c1ccc(I)cc1"
  measureName: "log10 of MFC"
  observedMeasurement: 2.10

For the compound "COc1cccc(N2C(=O)C=CC2=O)c1" , what log10 of MFC is on record?
1.80

For the compound "CC1=CC(=O)N(CCc2ccccc2)C1=O" , what log10 of MFC is on record?
2.40

For the compound "O=C1C(Cl)=C(Cl)C(=O)N1CCc1ccccc1" , what log10 of MFC is on record?
1.49

For the compound "O=C1C=CC(=O)N1c1ccc(Cl)cc1" , what log10 of MFC is on record?
1.80
